Ref: patent US20240018136A1

Target: CDK4/Cyclin D1 (Homo sapiens)
Test: CDK4/CyclinD1 enzymatic activity assay (TR-FRET)
Conditions: ATP 2 mM final, read-out: CDK4_D1 IC50
Listing of recorded IC50 by entry.

Worked set:
[[record]]
compound = "CC(=O)Nc1ncc(-c2nc(NC3CCN(S(C)(=O)=O)CC3)ncc2C(F)(F)F)s1 [Example 21]"
test_readout = "IC50"
measured_result = "0.1 to 1 µM"

[[record]]
compound = "CC(O)c1ncc(-c2nc(NC3CCN(S(=O)(=O)c4cnn(C)c4)CC3)ncc2C(F)(F)F)s1 (stereo not drawn) [Example 82]"
test_readout = "IC50"
measured_result = "≤ 0.1 µM"

[[record]]
compound = "COC(=O)N(C)Cc1ccc(-c2ncc(-c3nc(NC4CCN(S(C)(=O)=O)CC4)ncc3C(F)(F)F)s2)c(C)c1 [Example 14]"
test_readout = "IC50"
measured_result = "0.1 to 1 µM"


Data request: Tell me reported IC50 for Cn1cc(S(=O)(=O)N2CC[C@H](Nc3ncc(C(F)(F)F)c(-c4cnc(CC(C)(C)O)s4)n3)[C@H](F)C2)cn1 [Example 73] , tested with CDK4/Cyclin D1 (Homo sapiens).
Data returned: ≤ 0.1 µM

Data request: Tell me reported IC50 for CC(C)NC(=O)Nc1ncc(-c2nc(NC3CCN(S(C)(=O)=O)CC3)ncc2C(F)(F)F)s1 [Example 56] , tested with CDK4/Cyclin D1 (Homo sapiens).
Data returned: > 1 µM

Data request: Tell me reported IC50 for Cn1cc(S(=O)(=O)N2CCC(Nc3ncc(C(F)(F)F)c(-c4cnc(C(O)C(F)F)s4)n3)CC2)cn1 (stereo not drawn) [Example 92] , tested with CDK4/Cyclin D1 (Homo sapiens).
Data returned: ≤ 0.1 µM

Data request: Tell me reported IC50 for Cc1cc(CO)ccc1-c1nc(C)c(-c2nc(NC3CCN(S(C)(=O)=O)CC3)ncc2F)s1 [Example 15] , tested with CDK4/Cyclin D1 (Homo sapiens).
Data returned: 0.1 to 1 µM

Data request: Tell me reported IC50 for Cn1cnc(S(=O)(=O)N2CCC(Nc3ncc(C(F)(F)F)c(-c4cnc(C(O)C(F)(F)F)s4)n3)CC2)c1 (stereo not drawn) [Example 90] , tested with CDK4/Cyclin D1 (Homo sapiens).
Data returned: ≤ 0.1 µM

* * *

Molecular target: CDK4/Cyclin D1 (Homo sapiens)
Test: CDK4/CyclinD1 enzymatic activity assay (TR-FRET)
Details: ATP 2 mM final, read-out: CDK4_D1 IC50
test_readout: IC50

[[record]]
compound = "CN(C)Cc1ncc(-c2nc(NC3CCN(S(C)(=O)=O)CC3)ncc2C(F)(F)F)s1"
measured_result = "100 to 1000 nM"

[[record]]
compound = "CS(=O)(=O)N1CCC(Nc2ncc(C(F)(F)F)c(-c3cnc(O[C@@H]4CCC[C@H]4O)s3)n2)CC1"
measured_result = "≤ 100 nM"

[[record]]
compound = "CS(=O)(=O)N1CCC(Nc2ncc(C(F)(F)F)c(-c3cnc(C(F)F)s3)n2)CC1"
measured_result = "100 to 1000 nM"


Shifting focus to the compound that follows.
Data request: Recorded IC50 for Cn1cnc(S(=O)(=O)N2CCC(Nc3ncc(C(F)(F)F)c(-c4cnc(C(O)C(F)F)s4)n3)CC2)c1 (stereo not shown) , please?
Data returned: ≤ 100 nM

* * *

Molecular target: CDK4/Cyclin D1 (Homo sapiens, UniProt P11802)
Sequence (P11802 whole entry): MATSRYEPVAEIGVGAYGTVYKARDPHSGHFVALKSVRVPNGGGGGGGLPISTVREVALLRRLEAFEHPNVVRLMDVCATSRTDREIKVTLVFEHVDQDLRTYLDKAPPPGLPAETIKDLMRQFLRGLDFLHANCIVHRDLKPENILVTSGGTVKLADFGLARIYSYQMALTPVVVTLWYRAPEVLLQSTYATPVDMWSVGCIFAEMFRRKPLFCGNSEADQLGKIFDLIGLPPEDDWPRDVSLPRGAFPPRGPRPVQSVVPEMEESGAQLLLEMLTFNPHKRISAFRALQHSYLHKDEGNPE
Sequence (P24385 whole entry partner): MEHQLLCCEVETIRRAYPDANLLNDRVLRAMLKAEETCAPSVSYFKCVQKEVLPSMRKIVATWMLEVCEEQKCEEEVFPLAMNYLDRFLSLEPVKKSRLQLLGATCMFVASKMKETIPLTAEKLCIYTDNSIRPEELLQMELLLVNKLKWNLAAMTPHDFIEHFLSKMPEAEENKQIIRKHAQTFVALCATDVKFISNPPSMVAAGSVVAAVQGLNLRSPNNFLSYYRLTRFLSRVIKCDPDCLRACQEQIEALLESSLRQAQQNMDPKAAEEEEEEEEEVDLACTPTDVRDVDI
Assay: CDK4/CyclinD1 enzymatic activity assay (TR-FRET)
Details: ATP 2 mM final, read-out: CDK4_D1 IC50
test_readout: IC50

[[record]]
molecule = "CS(=O)(=O)N1CCC(Nc2ncc(C(F)(F)F)c(-c3cnc(N)s3)n2)CC1 [Example 20]"
measured_result = "≤ 100 nM"

[[record]]
molecule = "CS(=O)(=O)N1CCC(Nc2ncc(C(F)(F)F)c(-c3cnc(NC(=O)C(F)(F)F)s3)n2)CC1 [Example 57]"
measured_result = "≤ 100 nM"

[[record]]
molecule = "CCNS(=O)(=O)N1CCC(Nc2ncc(C(F)(F)F)c(-c3cnc(C)s3)n2)CC1 [Example 48]"
measured_result = "100 to 1000 nM"


Shifting focus to the molecule that follows.
Data request: Recorded IC50 for CN(c1ncc(-c2nc(NC3CCN(S(C)(=O)=O)CC3)ncc2C(F)(F)F)s1)[C@@H]1CCC[C@H]1O [Example 34] , please?
Data returned: ≤ 100 nM

* * *

Target: CDK4/Cyclin D1 (Homo sapiens, UniProt P11802)
Experiment: CDK4/CyclinD1 enzymatic activity assay (TR-FRET)
Conditions: ATP 2 mM final, read-out: CDK4_D1 IC50
pIC50: −log10 of the molar value.
test_readout: pIC50

[[record]]
compound = "Cc1ccc(-c2ncc(-c3nc(NC4CCN(S(C)(=O)=O)CC4)ncc3C(F)(F)F)s2)c(C)c1"
test_readout = "pIC50"
measured_result = "6.00 to 7.00"

[[record]]
compound = "CC(O)c1ncc(-c2nc(N[C@H]3CCN(S(=O)(=O)c4cnc(N)s4)C[C@H]3C)ncc2C(F)(F)F)s1 (stereo partly shown)"
test_readout = "pIC50"
measured_result = "6.00 to 7.00"

[[record]]
compound = "CS(=O)(=O)N1CCC(Nc2ncc(C(F)(F)F)c(-c3cnc(CO)s3)n2)CC1"
test_readout = "pIC50"
measured_result = "6.00 to 7.00"

[[record]]
compound = "CC(C)(O)Cc1ncc(-c2nc(NC3CCN(S(C)(=O)=O)CC3)ncc2C(F)(F)F)s1"
test_readout = "pIC50"
measured_result = "≥ 7.00"

[[record]]
compound = "CS(=O)(=O)N1CCC(Nc2ncc(C(F)(F)F)c(-c3cnc(N4CCCC4)s3)n2)CC1"
test_readout = "pIC50"
measured_result = "≥ 7.00"


Data request: Tell me reported pIC50 for CCNc1ncc(-c2nc(NC3CCN(S(C)(=O)=O)CC3)ncc2C(F)(F)F)s1 , tested with CDK4/Cyclin D1 (Homo sapiens, UniProt P11802).
Data returned: ≥ 7.00

Data request: Tell me reported pIC50 for Cn1cnc(S(=O)(=O)N2CCC(Nc3ncc(C(F)(F)F)c(-c4cnc(C(O)C(C)(C)O)s4)n3)CC2)c1 (stereo not shown) , tested with CDK4/Cyclin D1 (Homo sapiens, UniProt P11802).
Data returned: ≥ 7.00

* * *

Listing of recorded IC50 by entry.
Biological target: CDK4/Cyclin D1 (Homo sapiens)
Assay: CDK4/CyclinD1 enzymatic activity assay (TR-FRET)
Conditions: ATP 2 mM final, read-out: CDK4_D1 IC50

Worked set:
[[record]]
molecule = "CC(O)c1ncc(-c2nc(N[C@H]3CCN(S(=O)(=O)c4c[nH]cn4)C[C@H]3C)ncc2C(F)(F)F)s1 (stereo partly shown) [Example 104]"
test_readout = "IC50"
measured_result = "100 to 1000 nM"

[[record]]
molecule = "CNc1ncc(-c2nc(NC3CCN(S(C)(=O)=O)CC3)ncc2C(F)(F)F)s1 [Example 28]"
test_readout = "IC50"
measured_result = "≤ 100 nM"

[[record]]
molecule = "CC(O)c1ncc(-c2nc(N[C@H]3CCN(S(=O)(=O)c4cnn(C)c4)C[C@H]3F)ncc2C(F)(F)F)s1 (stereo partly shown) [Example 98]"
test_readout = "IC50"
measured_result = "≤ 100 nM"


Shifting focus to the molecule that follows.
Data request: Recorded IC50 for COCc1ncc(-c2nc(NC3CCN(S(C)(=O)=O)CC3)ncc2C(F)(F)F)s1 [Example 53] , please?
Data returned: 100 to 1000 nM

* * *

Listing of recorded IC50 by entry.
Molecular target: CDK4/Cyclin D1 (Homo sapiens, UniProt P11802)
Assay: CDK4/CyclinD1 enzymatic activity assay (TR-FRET)
Conditions: ATP 2 mM final, read-out: CDK4_D1 IC50

[[record]]
compound = "COCc1nn(C)cc1S(=O)(=O)N1CCC(Nc2ncc(C(F)(F)F)c(-c3cnc(C(C)O)s3)n2)CC1 (stereo not shown)"
test_readout = "IC50"
measured_result = "≤ 100 nM"

[[record]]
compound = "CC(C)(O)Cc1ncc(-c2nc(N[C@H]3CCN(S(C)(=O)=O)C[C@H]3F)ncc2C(F)(F)F)s1"
test_readout = "IC50"
measured_result = "≤ 100 nM"

[[record]]
compound = "[2H]C([2H])([2H])Nc1ncc(-c2nc(NC3CCN(S(C)(=O)=O)CC3)ncc2C(F)(F)F)s1"
test_readout = "IC50"
measured_result = "≤ 100 nM"


Data request: Recorded IC50 for Cc1cc(CO)ccc1-c1ncc(-c2nc(NC3CCN(S(C)(=O)=O)CC3)ncc2C(F)(F)F)s1 , please?
Data returned: ≤ 100 nM

Data request: Recorded IC50 for Cc1cc(C(C)(C)O)ccc1-c1ncc(-c2nc(NC3CCN(S(C)(=O)=O)CC3)ncc2C(F)(F)F)s1 , please?
Data returned: 100 to 1000 nM

Data request: Recorded IC50 for CS(=O)(=O)N1CCC(Nc2ncc(C(F)(F)F)c(-c3cnc(C4=CCCC4)s3)n2)CC1 , please?
Data returned: ≤ 100 nM

Data request: Recorded IC50 for CC(O)c1ncc(-c2nc(N[C@@H]3CCN(S(=O)(=O)c4cnn(C)c4)C[C@@H]3F)ncc2C(F)(F)F)s1 (stereo partly shown) , please?
Data returned: 100 to 1000 nM
